Experiment: yeast display, Sf9 membrane polyspecificity reagent, FACS + sequencing; frameworks hold sequencing errors
parameter: polyreactivity (PSR sort gate)

These solved cases illustrate the format of a correct answer.
primarysequence=QVQLVESGGGFVQAGGSLRLSCAASGSTFRFYAMGWYRQAPGKERELVAAINGSGGSTYYADSVKGRFTISRDNAKNTVYLQMNSLKPEDTAVYYCAAESNTGPGEDYWGQGTQVTVSS reading="low polyreactivity"
primarysequence=QVQLVESGGGLVQAGGSLRLSCAASGSILGYYAMGWYRQAPGKERELVADIDNGTSTYYADSVKGRFTISRDNANNTVYLQMISLKPEDTAVYYCADEYYSRYFQSYYWGQGTQVTVSS reading="low polyreactivity"
primarysequence=QVQLVESGGGLVQAGGRLRLSCAASGSIFVGYAMGWYRQAPGKERELVAAISTRGGSTYYAHSVKGRFTISRDNAKNTVYLQMNSLKPEDTAVYYSAADYLDSTYGYVYGWDDYWGQGTQVTVST reading="low polyreactivity"
primarysequence=QVQLVESGGGLVQAGGSLRLSCAASGRTFRKYTMGWYRQAPGKERELVAASASRGGSTYYADSVKGRFTISRDNAKNTVYLQMNSLKPEDTAVYYCATDYITPSSDGDYWGQGTQVTVSS reading="high polyreactivity"

Shifting focus to the sequence that follows.
# get_value(readout='polyreactivity (PSR sort gate)', item= QVQLVESGGGLVQAGGSLRLSCAASGFTFDIYGMGWYRQAPGNERDLVASITSRSARTYYAYSVKGRFTISRDNAKNTVYLQMNSLKPEDTAVYYCAAYYWQCTYDSRRTGWRLMNYWGQGTQVTVSS ) high polyreactivity
